All figures here come from a collection of fitness landscapes (doi:10.1016/j.celrep.2020.107928).

Exercise: for every item that follows, state its recorded one-hybrid fitness for binding NBS DNA.
B1: Caulobacter ParB omega fusion; a variant is named by its letters at X, in order, B8GW30 (parent)
chain: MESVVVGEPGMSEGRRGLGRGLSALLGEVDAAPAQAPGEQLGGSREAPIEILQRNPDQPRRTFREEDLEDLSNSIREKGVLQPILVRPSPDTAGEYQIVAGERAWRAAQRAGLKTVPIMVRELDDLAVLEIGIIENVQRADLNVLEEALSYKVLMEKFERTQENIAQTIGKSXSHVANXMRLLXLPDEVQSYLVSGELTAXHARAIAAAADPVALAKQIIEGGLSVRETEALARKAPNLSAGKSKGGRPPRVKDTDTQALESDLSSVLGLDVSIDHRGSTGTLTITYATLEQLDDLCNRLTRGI

- Variants of: B1
- method_notes: one-hybrid fitness for binding NBS DNA (the Noc-binding site; scaled: cognate 1, non-cognate 0); higher = stronger binding
- run_parameters: with NBS DNA site
Whole data set: some 81,000 sequences, median “one-hybrid fitness for binding NBS DNA” near -0.1, cut for the highest 2% near 0.36. Shown is part of a subset that was picked to be rich in the highest values.

Worked examples follow.
What one-hybrid fitness for binding NBS DNA value was documented for this variant, HQST ?
≤ 0.2

What one-hybrid fitness for binding NBS DNA value was documented for this variant, QHRV ?
0.378

What one-hybrid fitness for binding NBS DNA value was documented for this variant, ISLV ?
≤ 0.2

What one-hybrid fitness for binding NBS DNA value was documented for this variant, QPHV ?
≤ 0.2

What one-hybrid fitness for binding NBS DNA value was documented for this variant, RQHT ?
0.417

Batch: one-hybrid fitness for binding NBS DNA for all items listed.
1. RQSS
2. DFWV

0.446
≤ 0.2
